Value source: PubChem BioAssay (NCI)

- Test system: 786-0 renal
- ASSAY_DETAILS: NCI tumour cell line growth inhibition, 48 h
MEASURED_ENDPOINT: log10 of TGI (log10 of the value in µM)
Note the log scale: values are log10 of TGI expressed in µM.

Some solved cases for reference:
{"columns": ["COMPOUND", "log10 of TGI"],
 "data": [
  ["Cc1cc(NS(=O)(=O)c2ccc(NC(=O)COc3ccc(-c4cc5ccccc5[nH]4)cc3)cc2)no1", 0.56],
  ["Oc1[nH]c2ccc(Cl)cc2c1/C=c1/ccc2c(c1)N=C(c1ccc(C(F)(F)F)cc1)N=2", 0.52],
  ["N=c1oc2ccc([N+](=O)[O-])cc2cc1C(=O)Nc1ccccn1", 1.63]
]}

Read the next record carefully.
According to the records, this compound COc1ccc(Oc2nc(Nc3ccc(N4CCOCC4)cc3)ncc2NC(=O)Nc2cc(OC)cc(OC)c2)cc1 displays log10 of TGI of 0.76

###

- System: SK-OV-3 ovarian
- ASSAY_DETAILS: NCI tumour cell line growth inhibition, 48 h
MEASURED_ENDPOINT: TGI

{"columns": ["COMPOUND", "ASSAY_RESULT"],
 "data": [
  ["Cc1ccc(N(C)S(=O)(=O)c2ccccc2)cc1", "> 100 µM"]
]}

Read the next record carefully.
Record for Cc1ccc(C2NC(=S)N3C(c4ccc(C)cc4)NC(=S)N23)cc1 (configuration not stated) under target or system SK-OV-3 ovarian: TGI reported as 15.5 µM

###

Catalogue of TGI readings, one per entry.
- Tested on: T-47D breast
- ASSAY_DETAILS: NCI tumour cell line growth inhibition, 48 h

{"columns": ["MOLECULE", "TGI"],
 "data": [
  ["CCn1c(SCC(=O)NNC(=S)Nc2ccc(Cl)cc2)nc2ccccc2c1=O", "83 µM"],
  ["O=[N+]([O-])c1ccc(/C=N/n2c(CCc3n[nH]c(=S)n3/N=C/c3ccc([N+](=O)[O-])o3)n[nH]c2=S)o1", "62.8 µM"],
  ["COC(=N)c1ncn(Cc2ccccc2)c1N", "> 100 µM"],
  ["O=C(OCC(Cl)(Cl)Cl)N1CC[C@@H](C2CCCCC2)C1", "> 100 µM"],
  ["O=C1CC(NCCCNC2CC(=O)c3c(Br)sc(Br)c32)c2c(Br)sc(Br)c21 (centres undefined)", "5.28 µM"]
]}

Record for O=C1c2ccccc2-c2c1c1c(O)cccc1n2CCCc1ccccc1 under target or system T-47D breast: TGI reported as > 100 µM

Record for CCCC1=NC(C(F)(F)F)(C(F)(F)F)N=C(N2CCOCC2)O1 under target or system T-47D breast: TGI reported as > 100 µM

Record for CC[C@@]1(OC(=O)C(N)CCC(=O)O)C(=O)OCc2c1cc1n(c2=O)Cc2cc3ccccc3nc2-1 (some centres undefined) under target or system T-47D breast: TGI reported as > 100 µM

Record for CCOC(=O)C(Cc1ccc2c(c1)CCC2)Cc1ccc2c(c1)CCC2 under target or system T-47D breast: TGI reported as > 100 µM

###

- System: M14 melanoma
- ASSAY_DETAILS: NCI tumour cell line growth inhibition, 48 h
MEASURED_ENDPOINT: TGI

Some solved cases for reference:
{"columns": ["COMPOUND", "ASSAYED_TARGET", "TGI"],
 "data": [
  ["CSC1=N/C(=C\\c2ccccc2)C(=O)N1CN1CCOCC1", "M14 melanoma", "> 100 µM"],
  ["Cc1ccc(C2NC(=S)N3C(c4ccc(C)cc4)NC(=S)N23)cc1 (configuration not stated)", "M14 melanoma", "11.2 µM"],
  ["O=S(=O)(CC(O)C(Cl)(Cl)Cl)NNc1ccccc1 (configuration not stated)", "M14 melanoma", "> 100 µM"]
]}

Read the next record carefully.
Record for COC(=O)NN/C=C(\C=Nc1ccccc1)[N+](=O)[O-] under target or system M14 melanoma: TGI reported as > 100 µM

###

- Tested on: ACHN renal
- ASSAY_DETAILS: NCI tumour cell line growth inhibition, 48 h
Catalogue of log10 TGI readings, one per entry.
Note the log scale: values are log10 of TGI expressed in µM.

Some solved cases for reference:
{"columns": ["COMPOUND", "log10 TGI"],
 "data": [
  ["Nc1cccc(/C=C/CN2CCN(CCOC(c3ccccc3)c3ccccc3)CC2)c1", 1.51],
  ["COc1ccccc1N(C(C)=O)C1=C(Cl)C(=O)c2ccccc2C1=O", 0.44],
  ["Cc1cc(O)c2c(c1)C(=O)C=C(Br)C2=O", 1.47],
  ["O=C1c2cccc3cccc(c23)C(=O)N1CC#Cc1ccc2c3c(cccc13)C(=O)N(CCN1CCNCC1)C2=O", 0.90],
  ["c1ccc(CNCCCNCCCCNCCCNCc2ccccc2)cc1", 1.33]
]}

Read the next record carefully.
According to the records, this compound COC(=O)c1c2c(c(C)[n+]([O-])c1C)C(=O)C=C(NCc1ccc(Br)cc1)C2=O displays log10 TGI of 0.32

###

- System: SW-620 colon
- ASSAY_DETAILS: NCI tumour cell line growth inhibition, 48 h
MEASURED_ENDPOINT: log10 TGI (log10 of the value in µM)
Note the log scale: values are log10 of TGI expressed in µM.

Some solved cases for reference:
{"columns": ["COMPOUND", "MEASURED_ENDPOINT", "ASSAY_RESULT"],
 "data": [
  ["Cc1ccc2c(n1)C(=O)C(Cl)=C(Nc1ccc(N3CCN(C)CC3)cc1)C2=O", "log10 TGI", 0.66],
  ["C=CC(Br)(CBr)CCC(Br)C(C)(C)Br (stereo unspecified)", "log10 TGI", 1.42],
  ["Cc1cc(O)c2c(c1)C(=O)C=C(Br)C2=O", "log10 TGI", 1.09],
  ["CC1=C(C(=O)Nc2cccc(C(F)(F)F)c2)C(c2ccccc2F)C(C(=O)Nc2cccc(C(F)(F)F)c2)=C(C)N1", "log10 TGI", 1.36],
  ["N#Cc1c(N)nc2c(N=Nc3ccccc3)c(N)nn2c1Nc1ccccc1", "log10 TGI", 1.70],
  ["Cc1ccc2nc3sc(=O)sc3nc2c1", "log10 TGI", 1.83],
  ["O=C(N/N=C/c1ccncc1)c1ccc(C(F)(F)F)nc1Nc1cccc(C(F)(F)F)c1", "log10 TGI", 1.11],
  ["Nc1cccc(/C=C/CN2CCN(CCOC(c3ccccc3)c3ccccc3)CC2)c1", "log10 TGI", 1.53],
  ["CC1C(O)[C@@]2(OC[C@@]34C(=O)CC5(O)[C@H](CCC6Cc7nc8c(nc7C[C@]65C)CC5CC[C@@H]6C7=C[C@H]9O[C@@]%10(O[C@@](C)(CO)C[C@@H]%10O)C(C)[C@@]9(O)[C@]7(C)[C@@H](O)CC6[C@]5(C)C8)C3=CC[C@H]4C2C)OC1(C)C (stereo partly specified)", "log10 TGI", -1.36],
  ["Cc1cc2oc(=O)c(Cl)c(Cl)c2c(C)c1Cl", "log10 TGI", 0.47]
]}

Record for NS(=O)(=O)c1ccc(N=Nc2ccc(O)c(O)c2)cc1 under target or system SW-620 colon: log10 TGI reported as 1.62

Record for CCOC(=O)C1=C(C)NC(C)=C(C(=O)OCC)C1c1cc(Br)c(O)c(OC)c1 under target or system SW-620 colon: log10 TGI reported as 1.21

Record for Cc1cc(NS(=O)(=O)c2ccc(NC(=O)COc3ccc(-c4cc5ccccc5[nH]4)cc3)cc2)no1 under target or system SW-620 colon: log10 TGI reported as 0.55

Record for CCCCCCCCCCCCNC(=O)[C@H]1CSC(c2cc(Br)cs2)N1 (stereo partly specified) under target or system SW-620 colon: log10 TGI reported as 0.62

Record for COc1ccc(/C=C/c2ccnc3ccccc23)cc1 under target or system SW-620 colon: log10 TGI reported as 1.56

Record for CC(=O)[C@H]1[C@@H](OCc2ccccc2)O[N+]([O-])=C(C)[C@@H]1c1ccccc1 under target or system SW-620 colon: log10 TGI reported as 1.50

Record for Cc1cc(Br)c2nsnc2c1[N+](=O)[O-] under target or system SW-620 colon: log10 TGI reported as 1.18

Record for Cc1ccc(C2NC(=S)N3C(c4ccc(C)cc4)NC(=S)N23)cc1 (stereo unspecified) under target or system SW-620 colon: log10 TGI reported as 1.25

Record for C=C1C(=O)O[C@H]2[C@H]1CC/C(COC(=O)c1cccc3ccccc13)=C\CC[C@@]1(C)O[C@@H]21 under target or system SW-620 colon: log10 TGI reported as 0.46

Record for O=C1C=CC(=O)c2c1cc1ccccc1c2O under target or system SW-620 colon: log10 TGI reported as 0.56
